systemName: T1, JMJD2A tudor domains
T1 sequence (O75164 whole entry, species assumed, looked up): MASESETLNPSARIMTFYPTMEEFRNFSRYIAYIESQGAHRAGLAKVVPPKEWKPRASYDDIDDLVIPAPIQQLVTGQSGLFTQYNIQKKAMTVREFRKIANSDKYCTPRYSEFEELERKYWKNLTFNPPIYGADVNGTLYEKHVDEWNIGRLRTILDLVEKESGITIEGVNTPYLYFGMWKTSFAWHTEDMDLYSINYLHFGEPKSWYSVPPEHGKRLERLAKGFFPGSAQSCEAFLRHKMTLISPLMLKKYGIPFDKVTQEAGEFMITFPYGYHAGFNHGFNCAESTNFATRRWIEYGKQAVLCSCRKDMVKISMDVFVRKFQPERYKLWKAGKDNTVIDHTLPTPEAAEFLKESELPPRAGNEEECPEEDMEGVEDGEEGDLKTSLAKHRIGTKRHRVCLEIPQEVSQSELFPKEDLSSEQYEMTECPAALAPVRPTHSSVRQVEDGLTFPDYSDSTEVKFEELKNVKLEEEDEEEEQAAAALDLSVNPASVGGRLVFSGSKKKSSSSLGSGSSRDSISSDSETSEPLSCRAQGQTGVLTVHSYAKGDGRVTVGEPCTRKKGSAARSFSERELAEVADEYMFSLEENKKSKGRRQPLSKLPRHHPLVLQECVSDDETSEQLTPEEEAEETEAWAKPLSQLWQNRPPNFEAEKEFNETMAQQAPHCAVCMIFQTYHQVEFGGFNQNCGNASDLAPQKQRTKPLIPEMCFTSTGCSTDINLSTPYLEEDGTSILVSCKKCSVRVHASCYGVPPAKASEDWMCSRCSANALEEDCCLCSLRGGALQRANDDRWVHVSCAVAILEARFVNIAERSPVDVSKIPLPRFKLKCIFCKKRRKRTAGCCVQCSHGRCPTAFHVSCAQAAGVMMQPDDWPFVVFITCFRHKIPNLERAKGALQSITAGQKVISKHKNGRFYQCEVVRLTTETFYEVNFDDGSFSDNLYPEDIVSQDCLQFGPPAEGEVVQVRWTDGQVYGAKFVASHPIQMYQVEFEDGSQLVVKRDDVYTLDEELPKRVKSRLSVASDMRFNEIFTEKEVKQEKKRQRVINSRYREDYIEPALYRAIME
experimentSummary: ITC; 350–600 μM H3K4me3 or H3C4me3 peptide titrated to 25–40 μM protein (JMJD2A–H3C4me3: 3 mM peptide to 200 μM JMJD2A); 19 injections; Microcal Auto-iTC200; one set of sites model; 5–7 repeats
pKd: −log10 of the molar value. Ends that are not written are not given here. Me3 = trimethyllysine (Kme3)

binder	pKd
ARTK(Me3)QTARKS-OH [10-mer H3K4me3 histone peptide]	6.03
